target: hCB2R (Homo sapiens, UniProt P34972); assay: cell-based; type: cell-based; set-up: expressed in transfected cells; host or cells: Flp-In-293 (Invitrogen #R750-07), pcDNA5/FRT
Sequence (P34972 whole entry): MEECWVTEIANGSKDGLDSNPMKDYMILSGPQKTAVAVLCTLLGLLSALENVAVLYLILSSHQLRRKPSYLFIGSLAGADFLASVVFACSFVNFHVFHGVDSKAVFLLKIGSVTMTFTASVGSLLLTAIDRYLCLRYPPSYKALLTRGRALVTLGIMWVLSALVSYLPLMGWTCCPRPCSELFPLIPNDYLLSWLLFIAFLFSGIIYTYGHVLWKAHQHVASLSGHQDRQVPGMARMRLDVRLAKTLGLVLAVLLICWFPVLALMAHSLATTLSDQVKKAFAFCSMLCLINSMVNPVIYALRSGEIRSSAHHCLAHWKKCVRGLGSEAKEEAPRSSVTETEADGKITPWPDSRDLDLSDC
assayReadout: pEC50 ± SEM GIRK hCB2R
Format: numeric value only, no unit, no commentary.

Before answering, review these 2 worked examples.
# compound, targetEntity, pEC50 ± SEM GIRK hCB2R
data = [
    ("CN1CCCC[C@H]1Cn1cc(C(=O)c2cc([N+](=O)[O-])ccc2I)c2ccccc21 [(S)-AM1241]", "hCB2R (Homo sapiens, UniProt P34972)", 5.6),
    ("COc1ccc(C(=O)c2c(C)n(CCN3CCOCC3)c3cc(I)ccc23)cc1", "hCB2R (Homo sapiens, UniProt P34972)", 5.82),
]

IN: Give pEC50 ± SEM GIRK hCB2R for this entry on hCB2R (Homo sapiens, UniProt P34972): CN1CCCCC1Cn1cc(C(=O)c2cc([N+](=O)[O-])ccc2I)c2ccccc21 (racemic) [(rac)-AM1241]
OUT: 5.23

###

molecular target: human NAPE-PLD (Homo sapiens); construct: Full length human cDNA NAPE-PLD was obtained from Natsuo Ueda; expressed in transfected cells; host or cells: HEK293T (transient), membrane fraction; assay: NAPE-PLD inhibition; format: biochemical; details: 10 µM
Sequence (Q6IQ20 whole entry): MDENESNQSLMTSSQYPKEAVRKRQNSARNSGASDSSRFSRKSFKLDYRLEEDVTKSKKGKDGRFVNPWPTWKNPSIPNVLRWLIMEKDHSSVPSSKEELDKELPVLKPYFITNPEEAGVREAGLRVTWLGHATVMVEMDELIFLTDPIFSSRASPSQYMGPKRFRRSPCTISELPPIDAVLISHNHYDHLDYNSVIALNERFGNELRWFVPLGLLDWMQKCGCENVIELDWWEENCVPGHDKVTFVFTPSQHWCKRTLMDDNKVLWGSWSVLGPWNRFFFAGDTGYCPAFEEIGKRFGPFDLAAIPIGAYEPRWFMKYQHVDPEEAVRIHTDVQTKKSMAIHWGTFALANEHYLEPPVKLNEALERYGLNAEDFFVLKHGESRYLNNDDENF
assayReadout: NAPE-PLD % inhibition at 10 µM ± SD (%)
Express it in %; write the number only.

Observe how each entry below is paired with its result.
# compound, NAPE-PLD % inhibition at 10 µM ± SD, %
measured = [
    ("COc1ccc(C(=O)c2c(C)n(CCN3CCOCC3)c3cc(I)ccc23)cc1 [AM630]", -4),
    ("CN1CCCC[C@@H]1Cn1cc(C(=O)c2cc([N+](=O)[O-])ccc2I)c2ccccc21 [(R)-AM1241]", 21),
]

IN: Let me know recorded NAPE-PLD % inhibition at 10 µM ± SD for Cc1ccc2c(c1)Cc1c(C(=O)NN3CCCCC3)nn(-c3ccc(Cl)cc3Cl)c1-2 [Gp-1a] , thanks.
OUT: 3

###

target: hCB2R (Homo sapiens); experiment: cell-based; assay type: cell-based; conditions: read-out: Emax ± SEM β-AR recruitment hCB2R
assayReadout: Emax
State the result as a value with its unit after it.

The examples below pair each entry with its known result.
# molecule, Emax
records = [
    ("CCCCC/C=C\\C/C=C\\C/C=C\\C/C=C\\CCCC(=O)NCCO [Anandamide, N-arachidonoylethanolamine]", "38%"),
    ("CCCCCCC(C)(C)c1ccc([C@@H]2C[C@H](O)CC[C@H]2CCCO)c(O)c1", "80%"),
    ("CCCCCCC(C)(C)c1cc(OC)c([C@@H]2C=C(CO)[C@@H]3C[C@H]2C3(C)C)c(OC)c1", "57%"),
]

We now examine a further molecule.
IN: Provide Emax, tested on hCB2R (Homo sapiens), for CCCCC/C=C\C/C=C\C/C=C\C/C=C\CCCC(=O)OC(CO)CO .
OUT: 80%

###

Reported ΔLogR GTPγS values are given for each entry in this list.
biological target: hCB2R (Homo sapiens, UniProt P34972); set-up: expressed in transfected cells; host or cells: Flp-In-293 (Invitrogen #R750-07), pcDNA5/FRT; details: hCB2R, reference CP55940
// no unit, no text: just the number

Known ΔLogR GTPγS results, listed for orientation:
# compound, measuredResult
records = [
    ("CN1CCCCC1Cn1cc(C(=O)c2cc([N+](=O)[O-])ccc2I)c2ccccc21 (racemic) [(rac)-AM1241]", -2.38),
    ("CCCCCCC(C)(C)c1cc(OC)c(C2=C[C@H]3CC[C@]2(CO)C3(C)C)c(OC)c1 [HU910]", -1.46),
    ("CCCCCCC(C)(C)c1cc(OC)c([C@@H]2C=C(CO)[C@@H]3C[C@H]2C3(C)C)c(OC)c1 [HU308]", -1.33),
]

IN: Provide ΔLogR GTPγS value for the following compound: CCCCC/C=C\C/C=C\C/C=C\C/C=C\CCCC(=O)OC(CO)CO [2-AG, 2-arachidonoyl glycerol]
OUT: -3.65

Just for reference, paper PMC5216056 is where these values come from.
